// values below are reported pIC50
molecular target: NLRP3 (Homo sapiens, UniProt Q96P20); experiment: THP-1 cells pyroptosis assay; type: cell-based; design: Seed THP-1 cells (25,000 cells/well) containing 1.0 μg/ml LPS; host or cells: THP-1 cells, LPS-primed, nigericin-stimulated; details: LPS 1 μg/ml, nigericin 5 μM, resazurin read-out
Sequence (Q96P20 whole entry): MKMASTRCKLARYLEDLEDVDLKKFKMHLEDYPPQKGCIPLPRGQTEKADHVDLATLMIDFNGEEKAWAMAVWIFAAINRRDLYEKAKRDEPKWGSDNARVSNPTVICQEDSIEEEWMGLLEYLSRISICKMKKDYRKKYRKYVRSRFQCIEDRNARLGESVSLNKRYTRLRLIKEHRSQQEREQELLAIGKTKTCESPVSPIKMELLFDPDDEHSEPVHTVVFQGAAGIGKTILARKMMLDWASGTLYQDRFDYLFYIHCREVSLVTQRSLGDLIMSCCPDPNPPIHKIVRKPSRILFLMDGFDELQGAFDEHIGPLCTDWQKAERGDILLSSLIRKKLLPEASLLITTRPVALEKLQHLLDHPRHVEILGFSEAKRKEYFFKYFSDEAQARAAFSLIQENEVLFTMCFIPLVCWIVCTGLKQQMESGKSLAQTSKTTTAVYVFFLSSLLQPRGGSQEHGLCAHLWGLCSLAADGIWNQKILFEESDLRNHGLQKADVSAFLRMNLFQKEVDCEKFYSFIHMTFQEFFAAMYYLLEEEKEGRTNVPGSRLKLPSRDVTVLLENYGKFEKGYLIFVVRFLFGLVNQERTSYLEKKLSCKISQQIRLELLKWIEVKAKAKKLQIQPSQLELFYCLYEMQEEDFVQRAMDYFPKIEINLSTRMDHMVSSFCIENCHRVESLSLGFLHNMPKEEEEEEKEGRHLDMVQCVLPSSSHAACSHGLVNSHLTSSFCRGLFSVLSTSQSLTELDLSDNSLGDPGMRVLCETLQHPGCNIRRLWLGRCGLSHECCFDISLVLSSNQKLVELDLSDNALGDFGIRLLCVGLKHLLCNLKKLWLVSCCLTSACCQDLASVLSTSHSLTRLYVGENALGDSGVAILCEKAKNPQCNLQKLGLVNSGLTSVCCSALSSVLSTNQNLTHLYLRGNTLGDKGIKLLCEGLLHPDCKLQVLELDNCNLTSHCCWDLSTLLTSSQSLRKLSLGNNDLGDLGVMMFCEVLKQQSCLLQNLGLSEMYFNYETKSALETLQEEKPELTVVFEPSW
pIC50: −log10 of the molar value.

Observed pIC50 on NLRP3 (Homo sapiens, UniProt Q96P20), entry COC1(c2cc(S(=O)(=O)NC(=O)Nc3c4c(cc5c3CCC5)CCC4)nn2C)CCOC1 (centres unmarked) [Example 48] , equals > 7.40

For the compound CC(C)(O)Cn1ccc(S(=O)(=O)NC(=O)Nc2c(-c3ccnc(C#N)c3)ccc3c2CCC3)n1 [Example 93] , the measured pIC50 on NLRP3 (Homo sapiens, UniProt Q96P20) was > 7.40

Measured pIC50 (NLRP3 (Homo sapiens, UniProt Q96P20)), entry CC(C)c1cc(F)cc(C(C)C)c1NC(=O)NS(=O)(=O)c1cc(C2(O)CCOCC2)n(C)n1 [Example 54] : 5.59 to 6.19

pIC50 for NLRP3 (Homo sapiens, UniProt Q96P20) with input O=C(Nc1c2c(cc3c1CCC3)CCC2)NS(=O)(=O)c1ccn(CCCO)n1 [Example 7] equals 6.80 to 7.40

Summary: C[C@@H](O)Cn1cnc(S(=O)(=O)NC(=O)Nc2c3c(cc4c2CCC4)CCC3)n1 [Example 36] , NLRP3 (Homo sapiens, UniProt Q96P20), pIC50 = 6.19 to 6.80

Kindly note: NLRP3 (Homo sapiens, UniProt Q96P20), COC1(c2cc(S(=O)(=O)NC(=O)Nc3c4c(cc5c3CCC5)CCC4)nn2C(C)C)COC1 [Example 42] , pIC50 value reported: > 7.40

Kindly note: NLRP3 (Homo sapiens, UniProt Q96P20), O=C(Nc1c2c(cc3c1CCC3)CCC2)NS(=O)(=O)c1ccn(CC2CCCO2)n1 (single isomer, unassigned) [Example 5] , pIC50 value reported: 6.80 to 7.40

Considering COC1(c2cc(S(=O)(=O)NC(=O)Nc3c(C(C)C)cc(F)cc3C(C)C)nn2C)COC1 [Example 52] , its pIC50 with NLRP3 (Homo sapiens, UniProt Q96P20) was recorded as 6.19 to 6.80
